Can you tell me Population Tubulin-Different-Phenotype (%) for the items I'm about to list?
System: HEK-293T
Experiment: Multiplex assay against HEK293T;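 also: share of the cells with healthy nuclei that show this phenotype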
Format: toxicity, cell-based
Conditions: human, 12 h, 10 µM, compound concentration 10 uM, replicate 1
Give the value in % but do not write % after it.

Qu. Any idea what its Population Tubulin-Different-Phenotype (%) is? The compound is O=c1[nH]c2ccccc2n1C1CCN(Cc2ccc(-c3[nH]c4cc5ncnc5cc4nc3-c3ccccc3)cc2)CC1
Ans. 91

Qu. Here is the next compound: CN1CCN(Cc2ccc(Nc3ncc(Cl)c(Nc4ccccc4S(=O)(=O)N(C)C)n3)cc2)CC1
Ans. 88

Qu. Also CC(C)c1noc(N2CCC(COc3ccc(-c4ccc(S(C)(=O)=O)cc4)nc3)CC2)n1 ?
Ans. 72

Qu. What do you get for C[C@]12CC[C@@H]3c4ccc(O)cc4CC[C@H]3[C@@H]1CC[C@@H]2O ?
Ans. 29
